Each recorded value in this set is attributed to PubChem BioAssay (NCI).

Tested on: UO-31 renal
Assay: NCI tumour cell line growth inhibition, 48 h
We'd kindly ask you to apply these TGI classes: low = under 6 µM, middle = from 6 µM up to 30 µM, high = 30 µM and over

>>> label_class("CCC[CH2][Sn-]([CH2]CCC)([CH2]CCC)[O]C(=O)C(C)C")
"low"
>>> label_class("COc1cc2c(cc1C)NC(=O)/C2=C/c1ccnc2ccccc12")
"high"
>>> label_class("CN1CCCC2[C@@H]3CCC4c5nonc5CC[C@]4(C)C3CC[C@@]21C (some centres undefined)")
"high"
>>> label_class("CCCCCCCC(=O)OCC/C=C/C1OC1C1OC(=O)/C=C\\C=C\\C(=O)N(C(C)=O)C(=O)/C=C(/C)CCC2OC2C1OC(=O)NC(C)=O (centres undefined)")
"middle"
>>> label_class("COc1ccc(CCNC(=O)Cc2ccccc2CO)cc1OC")
"high"
>>> label_class("COC(=O)C1CC(c2ccc(OC)c(OC)c2)OC1=O (mixture of isomers)")
"high"

Entry CC(=O)C(=Cc1cn(C)c(=O)n(C)c1=O)C(C)=O belongs to which category?
high

Tag the class for CCc1nc(N)c2nc(-c3cccs3)oc2n1
high

Dear colleague, I would appreciate it if you could identify the bin for CC(=O)[CH-]C(C)=O.CC(=O)[CH-]C(C)=O.[O-]c1ccccc1.[O-]c1ccccc1.[Ti+4] and reply at your convenience.
high

Exam item: assign N[C@@H](CCC(=O)NC(Cc1ccccc1)C(=O)NCP(=O)(O)O)C(=O)O (some centres undefined) to the correct category.
high

Bin? C=C(NC(=O)C(=C)NC(=O)c1ccc2c(n1)-c1coc(n1)C(=C)NC(=O)C(=C)NC(=O)c1nc(oc1C)C(=C)NC(=O)C(C(C)(C)O)NC(=O)C(=C)NC(=O)c1coc(n1)/C(=C/C)NC(=O)[C@H]([C@@H](C)O)NC(=O)c1csc-2n1)C(N)=O (some centres undefined)
high
